Data origin, for the record: PubChem BioAssay

- ASSAY EXPLANATION: compound binding in COS7 lysate, probe aLAP1, primary screen, cell lysate, small-molecule microarray (AID 1124);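 note: lysate comes from COS7 cells expressing LAP1 and is applied at 0.3 µg/mL; score merges spot fluorescence near 667 nm with signal-to-noise over triplicate slides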
- EXPERIMENTAL SETUP: probe aLAP1, fluorescence, higher = more signal
Measured composite z-score accompanies every entry in the list below.

[
  {
    "MOL SMILES": "C=CCNC(=O)[C@@H]1[C@H]2C(=O)O[C@H](c3ccccc3)[C@H](c3ccccc3)N2[C@H](c2ccc(O)cc2)[C@@]12C(=O)Nc1ccc(C#CC3(O)CCCCCC3)cc12",
    "composite z-score": 0.107
  },
  {
    "MOL SMILES": "C=CCNC(=O)[C@H]1[C@@H]2C(=O)O[C@@H](c3ccccc3)[C@@H](c3ccccc3)N2[C@@H](c2ccccc2OCCO)[C@]12C(=O)N(C(=O)OCCOC)c1ccccc12",
    "composite z-score": 0.883
  },
  {
    "MOL SMILES": "COc1cccc(OC)c1C(=O)O[C@H]1[C@@H]2OC(=O)[C@H](Cc3cccc(Br)c3)C/C=C/C[C@@H](Cc3cccc(Br)c3)C(=O)O[C@H]2[C@@H](OC)O[C@@H]1CO",
    "composite z-score": 0.56
  }
]
